assay.target: human muscarinic M4 receptor (Homo sapiens, UniProt P08173)
Construct: expressed in transfected cells
Sequence (P08173 whole entry): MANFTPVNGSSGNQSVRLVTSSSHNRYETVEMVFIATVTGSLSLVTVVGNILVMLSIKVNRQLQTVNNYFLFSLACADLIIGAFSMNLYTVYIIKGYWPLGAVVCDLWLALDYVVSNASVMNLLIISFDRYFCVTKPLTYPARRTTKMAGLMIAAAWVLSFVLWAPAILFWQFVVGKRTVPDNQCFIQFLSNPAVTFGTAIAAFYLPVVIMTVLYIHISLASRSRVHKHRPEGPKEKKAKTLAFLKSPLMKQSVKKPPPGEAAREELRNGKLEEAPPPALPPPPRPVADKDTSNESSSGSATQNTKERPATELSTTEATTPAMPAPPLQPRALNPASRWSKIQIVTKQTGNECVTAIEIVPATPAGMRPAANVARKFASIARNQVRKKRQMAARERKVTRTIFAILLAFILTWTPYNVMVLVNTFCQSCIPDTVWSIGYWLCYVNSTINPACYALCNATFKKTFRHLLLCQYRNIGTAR
assay.protocol: Alphascreen Surefire phospho-ERK1/2 functional assay, M4
Format: cell-based
test.conditions: pEC50 M4
For each record, write down the corresponding EC50.
Please give a number only; it is taken to be in nM.

What value of measured EC50 is listed for CCOC(=O)N1CCC2(CC(N3CCC(N(CC)CC(F)F)CC3)C2)C1 (single isomer, unassigned) [2-46 Isomer 2] ?
7.94

Likewise for CCOC(=O)N1CCC2(CC(N3CCC(N(CCF)Cc4cnco4)CC3)C2)C1 (single isomer, unassigned) [2-61 Isomer 2] ?
39.8

Another: CCOC(=O)N1CCC2(CC(N3CCC(N(CC)CCF)CC3)C2)C1 (single isomer, unassigned) [2-45 Isomer 2]
63.1
